- study target: UniProt P51813
- Sequence (P51813 whole entry): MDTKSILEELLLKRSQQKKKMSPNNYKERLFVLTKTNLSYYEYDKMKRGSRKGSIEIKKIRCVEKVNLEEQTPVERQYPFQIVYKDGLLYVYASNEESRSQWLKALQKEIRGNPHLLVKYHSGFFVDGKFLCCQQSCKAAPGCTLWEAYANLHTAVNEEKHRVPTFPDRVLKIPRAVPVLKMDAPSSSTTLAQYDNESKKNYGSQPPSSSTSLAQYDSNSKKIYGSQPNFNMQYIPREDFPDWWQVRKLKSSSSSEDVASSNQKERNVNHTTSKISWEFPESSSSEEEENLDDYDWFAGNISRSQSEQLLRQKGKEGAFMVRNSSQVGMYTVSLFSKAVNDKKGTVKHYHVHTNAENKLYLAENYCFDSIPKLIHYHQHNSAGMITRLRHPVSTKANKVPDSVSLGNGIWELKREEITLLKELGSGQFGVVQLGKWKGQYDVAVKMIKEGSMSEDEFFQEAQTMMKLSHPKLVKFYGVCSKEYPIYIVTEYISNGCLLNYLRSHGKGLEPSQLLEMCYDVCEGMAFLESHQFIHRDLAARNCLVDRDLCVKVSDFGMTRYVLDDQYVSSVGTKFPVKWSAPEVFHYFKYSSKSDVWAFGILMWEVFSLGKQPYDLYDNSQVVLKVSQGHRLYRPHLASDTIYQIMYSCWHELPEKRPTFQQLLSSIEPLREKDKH
- procedure details: Etk [BMX(BMX1CGF1)] Takeda global kinase panel
quantity measured: IC50 (nM)
I only need the number, in nM, no unit after it.

{"compound": "CN1C(=O)[C@@H](N2CCc3cn(CC4CCS(=O)(=O)CC4)nc3C2=O)COc2ccccc21 [TP-030n]", "IC50 (nM)": 1000}

--- query ---
Per the records, this compound ( CN1C(=O)[C@@H](N2CCc3cn(Cc4ccccc4)nc3C2=O)COc2ccccc21 [TP-030-1] ) has IC50 equal to 1000

* * *

Data export: IC50 values recorded with Ephrin type-A receptor 4 (Homo sapiens).
Sequence (P54764 whole entry): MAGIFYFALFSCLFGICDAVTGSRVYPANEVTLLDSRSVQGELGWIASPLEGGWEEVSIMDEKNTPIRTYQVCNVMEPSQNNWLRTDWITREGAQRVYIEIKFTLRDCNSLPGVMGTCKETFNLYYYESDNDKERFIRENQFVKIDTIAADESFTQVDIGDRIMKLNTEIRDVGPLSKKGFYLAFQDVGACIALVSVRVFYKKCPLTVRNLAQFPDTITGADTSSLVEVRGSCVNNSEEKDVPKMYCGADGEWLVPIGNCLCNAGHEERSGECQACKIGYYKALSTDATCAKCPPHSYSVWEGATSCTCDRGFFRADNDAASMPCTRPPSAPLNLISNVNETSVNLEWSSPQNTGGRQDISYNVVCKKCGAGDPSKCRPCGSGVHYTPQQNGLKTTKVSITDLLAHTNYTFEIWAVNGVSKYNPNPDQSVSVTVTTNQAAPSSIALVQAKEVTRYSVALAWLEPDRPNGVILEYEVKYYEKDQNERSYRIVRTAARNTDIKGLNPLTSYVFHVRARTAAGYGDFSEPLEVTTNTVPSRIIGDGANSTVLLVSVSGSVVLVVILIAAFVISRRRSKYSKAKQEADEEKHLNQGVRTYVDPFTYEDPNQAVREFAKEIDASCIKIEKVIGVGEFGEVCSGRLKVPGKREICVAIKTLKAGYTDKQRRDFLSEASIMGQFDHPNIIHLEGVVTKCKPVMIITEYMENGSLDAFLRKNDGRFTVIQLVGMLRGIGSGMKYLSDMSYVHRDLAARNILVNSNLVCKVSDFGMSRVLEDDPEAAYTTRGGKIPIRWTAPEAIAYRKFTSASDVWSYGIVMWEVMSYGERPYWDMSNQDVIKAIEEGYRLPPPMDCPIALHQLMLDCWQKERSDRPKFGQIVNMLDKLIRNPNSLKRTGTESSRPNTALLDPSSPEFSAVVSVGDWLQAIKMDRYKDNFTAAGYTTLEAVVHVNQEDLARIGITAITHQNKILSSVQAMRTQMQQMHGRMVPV
I only need the number, in nM, no unit after it.

{"molecule": "CN1C(=O)[C@@H](N2CCc3cn(CC4CCS(=O)(=O)CC4)nc3C2=O)COc2ccccc21 [TP-030n]", "output unit": "nM", "IC50": 1000}

--- query ---
Tested system Ephrin type-A receptor 4 (Homo sapiens); IC50 recorded for "CN1C(=O)[C@@H](N2CCc3cn(Cc4ccccc4)nc3C2=O)COc2ccccc21" was 1000

* * *

- study target: Tyrosine-protein kinase receptor TYRO3 (Homo sapiens)
- Sequence (Q06418 whole entry): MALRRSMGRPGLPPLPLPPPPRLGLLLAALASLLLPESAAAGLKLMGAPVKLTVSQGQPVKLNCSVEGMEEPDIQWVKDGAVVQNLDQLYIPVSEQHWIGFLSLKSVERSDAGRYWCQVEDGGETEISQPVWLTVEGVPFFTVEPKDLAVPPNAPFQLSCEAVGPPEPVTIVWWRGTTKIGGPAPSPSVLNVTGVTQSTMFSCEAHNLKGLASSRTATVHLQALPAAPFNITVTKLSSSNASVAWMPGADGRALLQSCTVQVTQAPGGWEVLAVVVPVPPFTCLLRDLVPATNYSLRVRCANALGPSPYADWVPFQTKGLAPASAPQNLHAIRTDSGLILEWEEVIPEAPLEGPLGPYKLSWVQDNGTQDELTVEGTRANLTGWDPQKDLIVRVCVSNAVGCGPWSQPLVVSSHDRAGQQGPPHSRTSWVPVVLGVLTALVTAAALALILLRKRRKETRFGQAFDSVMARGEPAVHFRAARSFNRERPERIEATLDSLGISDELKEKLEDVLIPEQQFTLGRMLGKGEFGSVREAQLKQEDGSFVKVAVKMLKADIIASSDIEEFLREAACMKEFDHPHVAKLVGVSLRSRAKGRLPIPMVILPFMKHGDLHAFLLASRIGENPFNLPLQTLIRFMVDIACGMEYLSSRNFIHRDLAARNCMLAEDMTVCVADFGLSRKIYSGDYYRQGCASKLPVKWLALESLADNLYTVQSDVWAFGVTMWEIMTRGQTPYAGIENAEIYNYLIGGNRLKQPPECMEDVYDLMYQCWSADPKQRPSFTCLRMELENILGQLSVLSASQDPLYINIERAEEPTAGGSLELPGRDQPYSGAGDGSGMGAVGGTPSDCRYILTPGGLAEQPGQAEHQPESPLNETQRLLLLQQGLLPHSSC
quantity measured: pIC50
In plain terms, pIC50 is the concentration in mol/L turned into minus its base-10 logarithm.

Per the records, this molecule ( CN1C(=O)[C@@H](N2CCc3cn(CC4CCS(=O)(=O)CC4)nc3C2=O)COc2ccccc21 [TP-030n] ) has pIC50 equal to 6.00

Where these numbers come from: ChEMBL document CHEMBL4507327
